- Assay overview: Plasma pharmacokinetics on Cycle 1 Day 15, noncompartmental
- Format: in vivo, human
- Conditions used: human, plasma, oral, Cycle 1 Day 15, across dose levels, approximately; read-out: Median terminal half-life
Outcome measure: half-life

substance_smiles=N#CCNC(=O)c1ccc(-c2ccnc(Nc3ccc(N4CCOCC4)cc3)n2)cc1 endpoint_value="5 to 6.6 h"

* * *

- Assay overview: Plasma pharmacokinetics on Cycle 1 Day 15, noncompartmental
- Type: in vivo, human
- Conditions used: human, plasma, oral, 150 mg, 150 mg MMB BID n = 1; steady state, plasma; read-out: Tmax
Outcome measure: Tmax (h)

substance_smiles=N#CCNC(=O)c1ccc(-c2ccnc(Nc3ccc(N4CCOCC4)cc3)n2)cc1 outcome_measure=Tmax endpoint_value=3

* * *

- Assay overview: Plasma pharmacokinetics on Cycle 1 Day 15, noncompartmental
- Format: in vivo, human
- Conditions used: human, plasma, oral, converted from approximately 300 ng/mL; read-out: Maximum plasma concentration (Cmax), overall
Outcome measure: Cmax (nM)

substance_smiles=N#CCNC(=O)c1ccc(-c2ccnc(Nc3ccc(N4CCOCC4)cc3)n2)cc1 endpoint_value=720

* * *

- Assay overview: Plasma pharmacokinetics on Cycle 1 Day 15, noncompartmental
- Assay type: in vivo, human
- Conditions used: human, plasma, oral, 200 mg, 200 mg MMB BID n = 3; steady state; mean (% coefficient of variation)
Outcome measure: AUC

substance_smiles=N#CCNC(=O)c1ccc(-c2ccnc(Nc3ccc(N4CCOCC4)cc3)n2)cc1 endpoint_value="1980 ng·h/mL"

* * *

- Assay overview: Plasma pharmacokinetics on Cycle 1 Day 15, noncompartmental
- Format: in vivo, human
- Conditions used: human, plasma, oral, 200 mg, 200 mg MMB BID n = 3; steady state, plasma; mean (% coefficient of variation); read-out: Cmax
- Description: Blood samples were collected from patients prior to the MMB dose and at specified time points up to 24 h post-dose on Cycle 1 Day 15. Pharmacokinetic (PK) parameters were estimated using Phoenix WinNonlin® software (Certara USA, Inc., Princeton, NJ) using standard noncompartmental methods.
Outcome measure: Cmax (ng/mL)

substance_smiles=N#CCNC(=O)c1ccc(-c2ccnc(Nc3ccc(N4CCOCC4)cc3)n2)cc1 endpoint_value=330

* * *

- Assay overview: Plasma pharmacokinetics on Cycle 1 Day 15, noncompartmental
- Type: in vivo, human
- Conditions used: human, plasma, oral, 200 mg, 200 mg MMB BID n = 3; steady state, plasma; median (first quarter, third quarter); read-out: T 1/2 (converted)
Outcome measure: half-life (h)

substance_smiles=N#CCNC(=O)c1ccc(-c2ccnc(Nc3ccc(N4CCOCC4)cc3)n2)cc1 endpoint_value=5.5

* * *

- Assay overview: Plasma pharmacokinetics on Cycle 1 Day 15, noncompartmental
- Type: in vivo, human
- Conditions used: human, plasma, oral, across dose levels, approximately; read-out: Maximum plasma concentration (Cmax), overall
Outcome measure: Cmax

compound="N#CCNC(=O)c1ccc(-c2ccnc(Nc3ccc(N4CCOCC4)cc3)n2)cc1 [MMB, momelotinib]" endpoint_value="~300 ng/mL"

* * *

- Assay overview: Plasma pharmacokinetics on Cycle 1 Day 15, noncompartmental
- Type: in vivo, human
- Conditions used: human, plasma, oral, 100 mg, 100 mg MMB QD n = 6; steady state, plasma; median (first quarter, third quarter); read-out: Tmax
- Method: Blood samples were collected from patients prior to the MMB dose and at specified time points up to 24 h post-dose on Cycle 1 Day 15. Pharmacokinetic (PK) parameters were estimated using Phoenix WinNonlin® software (Certara USA, Inc., Princeton, NJ) using standard noncompartmental methods.
Outcome measure: Tmax (h)

substance_smiles=N#CCNC(=O)c1ccc(-c2ccnc(Nc3ccc(N4CCOCC4)cc3)n2)cc1 endpoint_value=4.5

* * *

- Assay overview: Plasma pharmacokinetics on Cycle 1 Day 15, noncompartmental
- Format: in vivo, human
- Conditions used: human, plasma, oral, 100 mg, 100 mg MMB QD n = 6; steady state, plasma; median (first quarter, third quarter); read-out: T 1/2 (converted)
Outcome measure: half-life (h)

substance_smiles=N#CCNC(=O)c1ccc(-c2ccnc(Nc3ccc(N4CCOCC4)cc3)n2)cc1 outcome_measure=half-life endpoint_value=5.4

* * *

- Assay overview: Plasma pharmacokinetics on Cycle 1 Day 15, noncompartmental
- Format: in vivo, human
- Conditions used: human, plasma, oral, 150 mg, 150 mg MMB QD n = 3; steady state; mean (% coefficient of variation)
Outcome measure: AUC (ng·h/mL)

compound="N#CCNC(=O)c1ccc(-c2ccnc(Nc3ccc(N4CCOCC4)cc3)n2)cc1 [MMB, momelotinib]" unit_string=ng·h/mL endpoint_value=1680
